Biological target: Glucocorticoid receptor (Homo sapiens) (UniProt P04150)
Sequence (P04150 whole entry, looked up): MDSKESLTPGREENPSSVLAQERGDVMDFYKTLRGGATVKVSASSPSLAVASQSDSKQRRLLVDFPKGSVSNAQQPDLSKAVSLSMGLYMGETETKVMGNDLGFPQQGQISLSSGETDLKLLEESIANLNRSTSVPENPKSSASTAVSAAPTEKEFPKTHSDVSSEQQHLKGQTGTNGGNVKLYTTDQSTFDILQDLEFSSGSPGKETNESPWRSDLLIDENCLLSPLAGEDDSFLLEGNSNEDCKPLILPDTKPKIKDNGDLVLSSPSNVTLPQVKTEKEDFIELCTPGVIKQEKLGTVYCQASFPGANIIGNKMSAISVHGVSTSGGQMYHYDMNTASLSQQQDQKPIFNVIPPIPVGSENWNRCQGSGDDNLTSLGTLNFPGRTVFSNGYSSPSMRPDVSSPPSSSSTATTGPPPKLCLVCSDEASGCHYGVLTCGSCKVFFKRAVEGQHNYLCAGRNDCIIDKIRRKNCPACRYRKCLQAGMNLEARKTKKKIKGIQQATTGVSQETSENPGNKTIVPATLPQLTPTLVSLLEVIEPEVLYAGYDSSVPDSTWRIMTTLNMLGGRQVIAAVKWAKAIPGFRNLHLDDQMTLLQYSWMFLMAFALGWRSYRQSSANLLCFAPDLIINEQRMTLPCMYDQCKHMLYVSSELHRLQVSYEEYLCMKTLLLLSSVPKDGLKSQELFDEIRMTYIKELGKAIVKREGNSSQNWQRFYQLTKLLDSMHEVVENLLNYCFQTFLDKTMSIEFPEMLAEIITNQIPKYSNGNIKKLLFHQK
Assay: GR-EFC Redistribution (AID 451); further: potency means the concentration at half of the fitted maximal effect
Conditions: CHO-K1 GR-EFC translocation, beta-gal luminescence, 2 h
Activity calls are given as the source filed them. The call rests on the fitted dose curve.
measured-metric: Potency

> print(dat)
                                   compound                result
1  CC(C)c1ccc(/C=C2\C=C(c3ccc4ccccc4c3)OC2=O)cc1  > 9.22 µM (inactive)
2  O=C1c2ccccc2C(=O)c2c1ccc(N1C(=O)c3ccccc3C1=O)c2-c1c(N2C(=O)c3ccccc3C2=O)ccc2c1C(=O)c1ccccc1C2=O  > 9.22 µM (inactive)
3        C[C@@](N)(Cc1c[nH]c2ccccc12)C(=O)O  > 9.22 µM (inactive)
4  CN(C)Cc1ccccc1-c1ccc2ncnc(NC3CCNCC3)c2c1    > 46 µM (inactive)
5  Nc1cc2c(nc3c4ccccc4c(N)cc3[n+]2-c2cccc3ccccc23)c2ccccc12 (tested in a mixture with another compound)  > 9.22 µM (inactive)
